Each recorded value in this set is attributed to patent US20250042994A1.

measured target: T1, Human CD19-his protein (human, UniProt P15391 20-291)
T1 construct: bought protein; also called human CD19 protein; recombinant human CD19-His; not shown: His tag
T1 sequence (looked up): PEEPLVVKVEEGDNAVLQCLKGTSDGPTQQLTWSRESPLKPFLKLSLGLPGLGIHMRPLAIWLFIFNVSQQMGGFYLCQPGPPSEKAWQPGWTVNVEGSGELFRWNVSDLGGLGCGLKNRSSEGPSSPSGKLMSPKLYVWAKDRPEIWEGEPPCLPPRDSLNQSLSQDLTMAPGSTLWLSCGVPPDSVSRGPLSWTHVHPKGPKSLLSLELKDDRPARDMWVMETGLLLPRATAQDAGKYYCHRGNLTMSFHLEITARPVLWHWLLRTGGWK
assay text: ELISA, antibody at 10 nM
quantity kind: OD450
Note: the reply should be a number with no unit written.

q: Requested read-out: OD450. Entry: F4.41.1 (antibody, human IgG1, V domains shown, human-murine chimeric antibody, human IgG1) VH: QVQLQQSGAELVRPGTSVKVSCKASGYAFTNYLIEWVKQRPGQGLEWIGVINPGSGDTLYNEKFKGKATLTADKSSTTAYMQLSGLTSDVSAIYFCARSPPITTIVADYFDYWGQGTTLTVSS VL: DIQMTQTTSSLSASLGDRVTISCRASQDISNYLNWYQQKPDGTVKLLIYYTSRLHSGVPSRFSGSGSGADYSLTISNLEQEDIATYFCQQGKTLPYTFGGGTKLEIK
a: 0.61

q: Can you check F4.49.11 (antibody, human IgG1, V domains shown, human-murine chimeric antibody, human IgG1) VH: DVQLRASGPGLVKPSQSLSLTCSVTGYSITSGYYWNWIRQFPGNKLEWMGCISYDGTNNYNPSLKNRISFTRDTSKNQFFLNLNSVTTEDSATYYCARRVYYRYDGVVDYWGQGTSVTVSS VL: ENVLTQSPAIMSASPGEKVTMTCSASSSVSYIHWYQQKSSTAPKLWIYDTSKLASGVPGRFSGSRSRNSYSLTISSMEAEDVATYYCFQGSGYPLTFGSGTKLEIK next?
a: 0.85

q: Can you check F1-mab003 (antibody, human IgG1, V domains shown, human-murine chimeric antibody, human IgG1) VH: EVQLQQSGPELVKPGASVKMSCKASGYTFTDYVMHWVRQTPGQGLEWIGYFNPYNDGTNYNEKFKVKATLTSDKSSTTAYMELSSLTSEDSAVYYCARGVYYYGRDFDYWGQGTTLTVSS VL: DVVLTQTPLSLPVSLGDQASISCRSSQSLENSNGNSYLNWYLQKPGQSPQLLIYRVSNRFSGVLDRFSGSGSGTDFTLKISRVEAEDLGVYFCLQITHVPWTFGGGTKLEIK next?
a: 1.72
